Assay: inhibitors of E-selectin induction by TNFa, primary screen, imaging, HUVEC, immunofluorescence, MLSMR starter and 10KST1 sets (AID 487);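 note: 100% = median nuclei count of all wells on the same plate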
Conditions: HUVEC TNFalpha-induced E-selectin immunofluorescence imaging, at 2 µM; measured here: cell number, toxicity
reported-property: nuclei count (%)
API: value field is a number in %; no unit string.

[
  {
    "compound": "CCOC(=O)[C@H](CCc1ccccc1)N[C@@H](C)C(=O)N1CCC[C@H]1C(=O)O",
    "output-unit": "%",
    "nuclei count": 112
  },
  {
    "compound": "CC(=O)Nc1ccc(-c2cc3ccccc3o2)cc1",
    "output-unit": "%",
    "nuclei count": 138
  },
  {
    "compound": "CCCCNC(=O)c1cc2n(n1)C(C(F)(F)F)CC(c1ccccc1)N2 (stereo not drawn)",
    "output-unit": "%",
    "nuclei count": 107
  },
  {
    "compound": "COC(=O)c1ccc(Oc2nc3ccccc3n3c(C)nnc23)cc1",
    "output-unit": "%",
    "nuclei count": 74
  },
  {
    "compound": "S=C(N=Nc1ccccc1)NNc1ccccc1",
    "output-unit": "%",
    "nuclei count": 122
  }
]

Task: Quick check: nuclei count of `Cc1nn(C)cc1/C=N/O` ?
Result: 140

Task: Quick one: nuclei count for `O=C(O)c1nsc(Cl)c1Cl` ?
Result: 170

Task: Look up nuclei count: `COC(=O)CSc1nc(N)c2c3c(sc2n1)CCCC3`
Result: 172

Task: Item CC12CCC(C(=O)N(CCC#N)CCC#N)(CC1=O)C2(C)C (stereo not drawn) has what recorded nuclei count?
Result: 92.1

Task: So what does the record say about nuclei count for `Cc1nnc(SCc2nc3ccccc3[nH]2)s1` ?
Result: 172

Task: Query: nuclei count; subject: `O=C(O)CCCC(=O)Nc1ccn(-c2ccccc2)n1`
Result: 142

Task: Item `CCSC(SCC)[C@H](O)[C@@H](O)[C@H](O)[C@H](O)CO` has what recorded nuclei count?
Result: 116

Task: Form field: reported nuclei count of `CCOC(=O)CNC(=O)Nc1ccccc1C(=O)OC`
Result: 119

Task: Item `Cc1sccc1C1C(C#N)=C(N)SC(N)=C1C#N` has what recorded nuclei count?
Result: 167

Task: Form field: reported nuclei count of `COc1ccc(/C=N/n2cncn2)cc1CSc1ccccn1`
Result: 114

Task: So what's the measured nuclei count for this one? `c1coc(-c2nnc3sc(C4CCCCC4)nn23)c1`
Result: 170

Task: Find the recorded nuclei count belonging to CC1=CC=CN2CC(O)CN=C12 (stereo not drawn) and report it.
Result: 196

---

Each entry below lists one item and its recorded thallium flux slope value.
Assay: native HEK Tl+ uptake effects, second counter-screen – HEK cells, counterscreen 2, counter-screen for KCC2 modulator project, confirmation (AID 1718);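 note: run without ouabain in cells lacking the KCC2 cotransporter; slope of fluorescence scaled to its starting value between 10 and 20 s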
Details: HEK293 parental, thallium flux FluoZin-2 fluorescence slope; at 10 µM
Some of the results follow. Results filed as inconclusive are left out.
Lab note: record just the number, no unit beside it.

Would you please look over these solved cases?
[
  {
    "compound": "S=C(NN=C1CCN(Cc2ccccc2)CC1)NC1CCCCC1",
    "thallium flux slope": 0.0111
  },
  {
    "compound": "Cc1ccc(C)c(NC(=S)NNC(=S)Nc2ccc(C(C)C)cc2)c1",
    "thallium flux slope": 0.0121
  },
  {
    "compound": "O=C(CNCc1cccs1)Nc1cc(S(=O)(=O)N2CCCC2)ccc1Cl",
    "thallium flux slope": 0.0101
  },
  {
    "compound": "CC(=O)NNC(=O)c1csc(Cc2c(Cl)sc3ccc(Cl)cc23)n1",
    "thallium flux slope": 0.0112
  },
  {
    "compound": "Oc1ccccc1/C=N/n1c(-c2cccs2)n[nH]c1=S",
    "thallium flux slope": 0.0224
  },
  {
    "compound": "O=C(Nc1ccccc1F)C1C2C=CC3(O2)C1C(=O)N(c1cccnc1)C3C(=O)NC1CCCCC1 (stereo not drawn)",
    "thallium flux slope": 0.0108
  },
  {
    "compound": "CCCCn1c(SCC(=O)NCC2CCCO2)nc2ccc(N3CCOCC3)cc2c1=O (stereo not drawn)",
    "thallium flux slope": 0.013
  },
  {
    "compound": "COc1ccc(CNC(=O)CCn2cccc2)cc1",
    "thallium flux slope": 0.0101
  },
  {
    "compound": "O=C(CSc1cccc2cccnc12)N/N=C/c1cccnc1",
    "thallium flux slope": 0.0116
  },
  {
    "compound": "O=C(Nc1nc2c(F)cc(F)cc2s1)C1COc2ccccc2O1 (stereo not drawn)",
    "thallium flux slope": 0.0155
  }
]

Task: Consider the compound `COc1ccc(NC(=O)c2ccccc2[N+](=O)[O-])cc1OC` and give its measured thallium flux slope.
Result: 0.0109

Task: Find the recorded thallium flux slope belonging to `O=C(NNc1ccccc1Cl)C(O)(c1cccc(C(F)(F)F)c1)c1cccc(C(F)(F)F)c1` and report it.
Result: 0.018

Task: Param item = `COCCn1c(C)cc(C(=O)CSc2ncnc3sc4c(c23)CCC4)c1C` ; retrieve measured thallium flux slope.
Result: 0.0112

Task: // query thallium flux slope value for entry `O=C(CSc1nnc(-c2cccs2)n1Cc1ccccc1)N1CCc2ccccc2C1`
Result: 0.00891

Task: Consider the compound shown here: `Cc1ccc(OCC(=O)NNC(=S)NCc2ccccc2)cc1` What is its recorded thallium flux slope?
Result: 0.0162

Task: Which thallium flux slope is reported for this compound? `O=C(CNC(=O)c1ccco1)OCC(=O)c1ccccc1`
Result: 0.01

Task: Using the record for `CCn1c(SCc2ccccc2)nc2c(c1=O)SCC2` , report its thallium flux slope.
Result: 0.00988

Task: Quick check: thallium flux slope of `CCC(CC)NC(=O)CSc1nnc(-c2c[nH]c3ccccc23)o1` ?
Result: 0.0106

---

Target: Voltage-gated potassium channel subunit beta-2 (Rattus norvegicus) (UniProt P62483)
Sequence (P62483 whole entry, looked up): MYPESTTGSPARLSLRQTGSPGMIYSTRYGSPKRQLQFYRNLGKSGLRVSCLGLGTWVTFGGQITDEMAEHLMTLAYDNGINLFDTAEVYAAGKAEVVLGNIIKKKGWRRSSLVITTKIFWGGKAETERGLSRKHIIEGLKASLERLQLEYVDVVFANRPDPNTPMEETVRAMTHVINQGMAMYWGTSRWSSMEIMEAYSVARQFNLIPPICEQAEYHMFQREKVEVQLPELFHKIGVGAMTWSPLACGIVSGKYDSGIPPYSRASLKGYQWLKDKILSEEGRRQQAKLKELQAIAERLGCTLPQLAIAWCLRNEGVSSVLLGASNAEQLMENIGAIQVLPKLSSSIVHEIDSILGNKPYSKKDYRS
Assay: KvBeta enzyme negative modulators, primary screen, biochemical, NADPH fluorescence (AID 622);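 note: slope of raw intensity against log time taken from 70 to 1610 s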
Conditions: recombinant KvBeta, 4-cyanobenzaldehyde reduction, at 10 µM, stronger effect = higher value
Rule: fluorescence slope under -0.4 gives 0.0, otherwise 1.0.

Below, 3 compounds whose answers are already recorded.
[
  {
    "compound": "CCSc1nnc(N(CCC#N)CCC#N)s1",
    "assigned-class": 0.0
  },
  {
    "compound": "Cn1c(=O)n(C)c2cc(C(=O)c3ccccc3)ccc21",
    "assigned-class": 0.0
  },
  {
    "compound": "CC(=O)C1=C(O)C(=O)N(Cc2cccnc2)C1c1ccccc1Cl (configuration not stated)",
    "assigned-class": 0.0
  }
]

Task: Evaluate `CN1CCN(/C=N/c2sc3c(c2C#N)CCCCC3)CC1` : fluorescence slope at minimum -0.4?
Result: 0.0

Task: Given the entry `CCC1(c2ccccc2)C(=O)NCNC1=O` , answer whether its fluorescence slope meets or surpasses -0.4.
Result: 0.0

Task: Assess whether reported fluorescence slope for `Cn1c(SCC(=O)NCc2ccccc2)nc2ccccc21` sits at -0.4 or higher.
Result: 1.0

---

Assay: inhibitors of Chlamydomonas gravitaxis, primary screen, whole organism, Chlamydomonas reinhardtii, WT vs cilia-less mutant, absorbance, 96-well (AID 463189);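 note: 0% = wild type cc124 cells in DMSO and 100% = ciliumless bld1 mutant cells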
Settings: OD600 absorbance, 2 days, at 10 µM, stronger effect = higher value
reported-property: inhibition (%)
The reply should be a number in %, with the unit left off.

# annotated cases, reported inhibition shown
[
  {
    "molecule": "O=C(CCN1C(=O)c2ccccc2C1=O)OCN1C(=O)c2ccccc2C1=O",
    "output-unit": "%",
    "inhibition": 1.44
  },
  {
    "molecule": "COC(=O)c1cc(Br)c(=O)n(Cc2cccnc2)c1",
    "output-unit": "%",
    "inhibition": -26.1
  },
  {
    "molecule": "O=C(NCCCn1ccnc1)C(Cc1ccccc1)N1C(=O)c2ccccc2C1=O (configuration not stated)",
    "output-unit": "%",
    "inhibition": 3.02
  },
  {
    "molecule": "Cc1nc(NCc2ccccc2)c(C(N)=O)c2c1COC(C)(C)C2",
    "output-unit": "%",
    "inhibition": -5.71
  },
  {
    "molecule": "CCOC(=O)c1c(C)n(C)c2ccc(OC)c(NC(=O)CN3CCSCC3)c12",
    "output-unit": "%",
    "inhibition": 37
  }
]

Task: // returns reported inhibition for input `CCCSc1nnc2n(-c3ccccc3OC)c(=O)c3c4c(sc3n12)CCC4`
Result: 11.2

Task: Give the measured inhibition of CC1=CC=CN2CC(O)CN=C12 (configuration not stated) .
Result: 4.05

---

Target: Alpha-2C adrenergic receptor (Homo sapiens) (UniProt P18825)
Sequence (P18825 whole entry, looked up): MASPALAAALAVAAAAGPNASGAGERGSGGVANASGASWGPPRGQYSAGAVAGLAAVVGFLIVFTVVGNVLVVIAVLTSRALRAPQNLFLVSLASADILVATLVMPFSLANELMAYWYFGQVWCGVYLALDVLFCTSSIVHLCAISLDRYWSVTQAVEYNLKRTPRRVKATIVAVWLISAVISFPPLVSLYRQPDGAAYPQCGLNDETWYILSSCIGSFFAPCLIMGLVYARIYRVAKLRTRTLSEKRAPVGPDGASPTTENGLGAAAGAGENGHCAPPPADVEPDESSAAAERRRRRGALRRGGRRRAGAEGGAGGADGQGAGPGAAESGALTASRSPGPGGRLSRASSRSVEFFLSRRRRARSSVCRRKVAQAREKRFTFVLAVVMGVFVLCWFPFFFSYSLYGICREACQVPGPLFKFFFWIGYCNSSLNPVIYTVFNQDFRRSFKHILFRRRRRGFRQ
Test: modulators of alpha2C/GIRK thallium flux, primary screen, cell-based, HEK293 alpha2C/GIRK1/2 (AID 624);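 note: slope of fluorescence ratio to pre-addition baseline per second over 15 to 24 s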
Conditions: thallium flux BTC fluorescence, at 10 µM, actives lie on both sides
Listing of entries alongside the reported slope.
Quick one: just the number, no unit, thanks!

[
  {
    "molecule": "Cc1[nH]c(=O)[nH]c(=O)c1S(=O)(=O)N1CCCC1",
    "slope": 0.00533
  },
  {
    "molecule": "O=C(O)CC(C(=O)OCC1CCCO1)N1CCOCC1 (stereo unspecified)",
    "slope": 0.00538
  },
  {
    "molecule": "Cc1cccc(C)c1N1C(=O)C2ON(c3ccccc3)C(c3ccncc3)C2C1=O (stereo unspecified)",
    "slope": 0.00363
  },
  {
    "molecule": "Cc1cc(Cn2ccnc2)c(C)cc1Cn1ccnc1",
    "slope": 0.00445
  },
  {
    "molecule": "COc1ccccc1Cn1c2nc3ccccc3nc2c2c(=O)n(CC(C)C)cnc21",
    "slope": 0.00898
  }
]

Task: Requested field: slope. Item: `Cc1cc(C)n(-c2nnc(C)n2/N=C/c2ccccc2F)n1`
Result: 0.00446

Task: Would you kindly share the measured slope for `C=CCn1c(N)c(C(=O)OC(C)(C)C)c2nc3ccccc3nc21` ?
Result: 0.00615

Task: Using the record for `C(=C\c1ccccc1)/CN1CCN(C(c2ccccc2)c2ccccc2)CC1` , report its slope.
Result: 0.00492

Task: Which measured slope value corresponds to `O=C(O)CCc1cc(I)c(Oc2ccc(O)c(I)c2)c(I)c1` ?
Result: 0.00395

Task: What does the data say about its slope? Entry: `COc1ccc(Nc2nc(Nc3ccc(OC)cc3)nc(-n3[nH]c(=O)c(C)c3C)n2)cc1`
Result: 0.00543

Task: State the recorded slope for this entry: `Cn1c(OCc2ccco2)nc2c1c(=O)n(Cc1ccc(Cl)c(Cl)c1)c(=O)n2C`
Result: 0.00511
